# targetUnderTest: UniProt Q96P20
# assayNotes: Human whole blood IL-1β release assay
# Assay type: cell-based
# Set-up: Human whole blood in Li-heparin tubes was obtained from healthy donors; from tissue; host or cells: human whole blood from healthy donors
# measurementSetup: LPS 1 μg/ml, nigericin, IL-1β in supernatant (AlphaLisa), read-out: HWB IC50
The reader will find reported IC50 values listed item by item below.

Solved cases below.
molecule: CN1CCC(Oc2cc(-c3cc(F)cc(-c4ccccc4)c3NC(=O)NS(C)(=O)=O)ccn2)CC1 [Example 42]
IC50: 1 to 2 µM

molecule: CS(=O)(=O)NC(=O)Nc1c(-c2ccnc(OC3CCN(C4CC4)CC3)c2)ccc2c1CCC2 [Example 22]
IC50: 2 to 5 µM

molecule: CS(=O)(=O)NC(=O)Nc1c(-c2ccnc(OC3CCN(Cc4ccccc4)CC3)c2)ccc2c1CCC2 [Example 19]
IC50: 1 to 2 µM

molecule: CC(C)n1ccc(S(=O)(=O)NC(=O)Nc2c(-c3ccnc(OC4CCN(C)CC4)c3)ccc3c2CCC3)n1 [Example 68]
IC50: 0.25 to 0.5 µM

molecule: O=C(Nc1c(-c2ccnc(OC3CC3)c2)ccc2c1CCO2)NS(=O)(=O)c1ccn(C2CC2)n1 [Example 71]
IC50: 0.5 to 1 µM

Item: CN(C)CC(C)(C)n1ccc(S(=O)(=O)NC(=O)Nc2c(-c3ccnc(OC4CC4)c3)ccc3c2CCO3)n1 [Example 64] Test system: UniProt Q96P20 Read-out: IC50 Value: ?
0.25 to 0.5 µM

Item: O=C(Nc1c(-c2ccnc(OC3CC3)c2)ccc2c1CCC2)NS(=O)(=O)c1ccn(C2CC2)n1 [Example 72] Test system: UniProt Q96P20 Read-out: IC50 Value: ?
1 to 2 µM

###

The reader will find reported IC50 values listed item by item below.
# targetUnderTest: NLRP3 (Homo sapiens)
# assayNotes: THP-1 cells pyroptosis assay
# Format: cell-based
# Parameters: Seed THP-1 cells (25,000 cells/well) containing 1.0 μg/ml LPS; host or cells: THP-1 cells
# measurementSetup: LPS 1 μg/ml, nigericin 5 μM, resazurin readout

Solved cases below.
compound: CC(C)n1ccc(S(=O)(=O)NC(=O)Nc2c(-c3ccnc(OC4CCOC4)c3)ccc3c2CCC3)n1 (stereo not drawn)
targetUnderTest: NLRP3 (Homo sapiens)
IC50: ≤ 250 nM

compound: CN1CCC(Oc2cc(-c3ccc4c(c3NC(=O)N=S(N)(=O)c3ccccc3)CCC4)ccn2)CC1 (stereo not drawn)
targetUnderTest: NLRP3 (Homo sapiens)
IC50: ≤ 250 nM

compound: Cc1c(-c2ccc3c(c2NC(=O)NS(C)(=O)=O)CCC3)ccnc1OC1CCN(C)CC1
targetUnderTest: NLRP3 (Homo sapiens)
IC50: 250 to 500 nM

compound: CC(C)n1ccc(S(=O)(=O)NC(=O)Nc2c(-c3ccnc(OC4CCC4)c3)ccc3c2CCC3)n1
targetUnderTest: NLRP3 (Homo sapiens)
IC50: ≤ 250 nM

compound: Cc1cc2c(c(NC(=O)NS(C)(=O)=O)c1-c1ccnc(OC3CCOC3)c1)CCC2 (stereo not drawn)
targetUnderTest: NLRP3 (Homo sapiens)
IC50: ≤ 250 nM

Item: CC(C)n1ccc(S(=O)(=O)NC(=O)Nc2c(-c3ccnc(OC4CCN(C)CC4)c3)ccc3c2CCC3)n1 Test system: NLRP3 (Homo sapiens) Read-out: IC50 Value: ?
≤ 250 nM

Item: CC(C)c1cc(F)cc(-c2ccnc(N(C)C)c2)c1NC(=O)NS(=O)(=O)c1ccn(C(C)C)n1 [comp ex 3, reference compound] Test system: NLRP3 (Homo sapiens) Read-out: IC50 Value: ?
2000 to 5000 nM

Item: CN1CCC(Oc2cc(-c3cc(F)cc(C4CCCCC4)c3NC(=O)NS(C)(=O)=O)ccn2)CC1 Test system: NLRP3 (Homo sapiens) Read-out: IC50 Value: ?
≤ 250 nM

Item: CS(=O)(=O)NC(=O)Nc1c(-c2ccnc(OC3CCOCC3)c2)ccc2c1CCC2 Test system: NLRP3 (Homo sapiens) Read-out: IC50 Value: ?
250 to 500 nM

###

# targetUnderTest: NLRP3 (Homo sapiens, UniProt Q96P20)
# Sequence (Q96P20 whole entry): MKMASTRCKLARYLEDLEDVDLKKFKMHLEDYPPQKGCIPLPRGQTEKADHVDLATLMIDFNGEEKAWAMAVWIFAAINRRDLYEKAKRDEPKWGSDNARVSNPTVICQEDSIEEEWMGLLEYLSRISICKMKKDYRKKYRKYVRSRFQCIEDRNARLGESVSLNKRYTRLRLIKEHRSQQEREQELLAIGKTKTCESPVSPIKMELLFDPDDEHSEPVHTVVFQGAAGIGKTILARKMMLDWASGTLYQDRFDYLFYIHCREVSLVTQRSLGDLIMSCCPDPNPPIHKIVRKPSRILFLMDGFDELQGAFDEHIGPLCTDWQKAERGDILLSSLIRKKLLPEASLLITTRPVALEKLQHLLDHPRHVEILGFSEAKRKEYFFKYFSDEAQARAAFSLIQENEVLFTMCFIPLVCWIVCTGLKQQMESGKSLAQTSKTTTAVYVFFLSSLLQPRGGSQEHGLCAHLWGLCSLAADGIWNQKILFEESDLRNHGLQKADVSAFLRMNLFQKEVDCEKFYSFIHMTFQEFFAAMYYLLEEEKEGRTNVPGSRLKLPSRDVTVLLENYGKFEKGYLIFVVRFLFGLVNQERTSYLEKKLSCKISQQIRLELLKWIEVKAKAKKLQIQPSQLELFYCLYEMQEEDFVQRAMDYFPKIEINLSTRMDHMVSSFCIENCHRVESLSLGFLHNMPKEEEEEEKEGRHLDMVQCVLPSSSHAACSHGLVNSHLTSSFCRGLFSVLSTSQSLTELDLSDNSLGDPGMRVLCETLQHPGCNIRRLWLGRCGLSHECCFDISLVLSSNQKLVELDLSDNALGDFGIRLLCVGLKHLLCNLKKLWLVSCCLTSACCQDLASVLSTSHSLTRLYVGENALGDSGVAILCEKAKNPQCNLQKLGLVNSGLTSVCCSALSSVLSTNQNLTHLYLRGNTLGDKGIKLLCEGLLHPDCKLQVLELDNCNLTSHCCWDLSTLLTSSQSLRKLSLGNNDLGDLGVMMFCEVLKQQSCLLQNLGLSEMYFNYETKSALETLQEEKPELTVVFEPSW
# assayNotes: Human whole blood IL-1β release assay
# Format: cell-based
# Design: Human whole blood in Li-heparin tubes was obtained from healthy donors; from tissue; host or cells: human whole blood from healthy donors
# measurementSetup: LPS 1 μg/ml, nigericin, IL-1β in supernatant (AlphaLisa), read-out: HWB IC50
pIC50: −log10 of the molar value.
endpointName: pIC50

Solved cases below.
compound: CN1CCC(Oc2cc(-c3ccc4c(c3NC(=O)NS(C)(=O)=O)CCC4)ccn2)CC1 [Example 35]
targetUnderTest: NLRP3 (Homo sapiens, UniProt Q96P20)
endpointName: pIC50
resultValue: ≥ 6.60
//
compound: Cc1cc2c(c(NC(=O)NS(C)(=N)=O)c1-c1ccnc(OC3CCN(C)CC3)c1)CCC2 (stereo not drawn) [Example 80]
targetUnderTest: NLRP3 (Homo sapiens, UniProt Q96P20)
endpointName: pIC50
resultValue: 6.00 to 6.30
//
compound: CS(=O)(=O)NC(=O)Nc1c(-c2ccnc(O[C@H]3CC[C@@](C)(O)CC3)c2)ccc2c1CCC2 [Example 4]
targetUnderTest: NLRP3 (Homo sapiens, UniProt Q96P20)
endpointName: pIC50
resultValue: 6.30 to 6.60

Item: CC(C)(CN1CCC1)n1ccc(S(=O)(=O)NC(=O)Nc2c(-c3ccnc(OC4CC4)c3)ccc3c2CCC3)n1 [Example 65] Test system: NLRP3 (Homo sapiens, UniProt Q96P20) Read-out: pIC50 Value: ?
6.30 to 6.60

Item: CN1CCC(COc2cc(-c3ccc4c(c3NC(=O)NS(C)(=O)=O)CCC4)ccn2)CC1 [Example 27] Test system: NLRP3 (Homo sapiens, UniProt Q96P20) Read-out: pIC50 Value: ?
6.00 to 6.30

Item: CO[C@H]1CC[C@@H](Oc2cc(-c3c(C)cc4c(c3NC(=O)NS(C)(=O)=O)CCC4)ccn2)CC1 [Example 55] Test system: NLRP3 (Homo sapiens, UniProt Q96P20) Read-out: pIC50 Value: ?
6.00 to 6.30

###

# targetUnderTest: NLRP3 (Homo sapiens)
# assayNotes: Human whole blood IL-1β release assay
# Format: cell-based
# Parameters: Human whole blood in Li-heparin tubes was obtained from healthy donors; from tissue; host or cells: human whole blood from healthy donors
# measurementSetup: LPS 1 μg/ml, nigericin, IL-1β in supernatant (AlphaLisa), read-out: HWB IC50
The reader will find reported IC50 values listed item by item below.

Solved cases below.
molecule: CO[C@H]1CC[C@@H](Oc2cc(-c3ccc4c(c3NC(=O)NS(C)(=O)=O)CCC4)ccn2)CC1
resultValue: 1000 to 2000 nM
//
molecule: CO[C@H]1CC[C@H](Oc2cc(-c3c(C)cc4c(c3NC(=O)NS(C)(=O)=O)CCC4)ccn2)CC1
resultValue: 500 to 1000 nM
//
molecule: CC(C)n1ccc(S(=O)(=O)NC(=O)Nc2c(-c3ccnc(OC4CCCOC4)c3)ccc3c2CCC3)n1 (stereo not drawn)
resultValue: 1000 to 2000 nM
//
molecule: CC(C)n1ccc(S(=O)(=O)NC(=O)Nc2c(-c3ccnc(OC4CCOCC4)c3)ccc3c2CCC3)n1
resultValue: 500 to 1000 nM
//
molecule: CS(=O)(=O)NC(=O)Nc1c(-c2ccnc(OC3CCOCC3)c2)ccc2c1CCC2
resultValue: 1000 to 2000 nM
//
molecule: Cc1cc2c(c(NC(=O)NS(C)(=O)=O)c1-c1ccnc(O[C@H]3CC[C@H](N(C)C)CC3)c1)CCC2
resultValue: ≤ 250 nM
//
molecule: CN1CCC(Oc2cc(-c3ccc4c(c3NC(=O)N=S(N)(=O)c3ccccc3)CCC4)ccn2)CC1 (stereo not drawn)
resultValue: 2000 to 5000 nM
//
molecule: Cc1c(-c2ccc3c(c2NC(=O)NS(C)(=O)=O)CCC3)ccnc1OC1CCN(C)CC1
resultValue: 250 to 500 nM

// lookup IC50 for CC(C)n1ccc(S(=O)(=O)NC(=O)Nc2c(-c3ccnc(OC4CCOC4)c3)ccc3c2CCC3)n1 (stereo not drawn)
500 to 1000 nM

// lookup IC50 for CC(C)n1ccc(S(=O)(=O)NC(=O)Nc2c(-c3ccnc(C4CC4)c3)ccc3c2CCC3)n1
500 to 1000 nM

// lookup IC50 for CN1CCC(Oc2cc(-c3cc(F)cc(C4CCCC4)c3NC(=O)NS(C)(=O)=O)ccn2)CC1
1000 to 2000 nM

// lookup IC50 for Cc1cc2c(c(NC(=O)NS(=N)(=O)c3ccccc3)c1-c1ccnc(OC3CCN(C)CC3)c1)CCC2 (stereo not drawn)
1000 to 2000 nM

// lookup IC50 for O=C(Nc1c(-c2ccnc(OC3CC3)c2)ccc2c1CCO2)NS(=O)(=O)c1ccn(C2CCC2)n1
500 to 1000 nM

// lookup IC50 for CC(C)n1ccc(S(=O)(=O)NC(=O)Nc2c(-c3ccnc(Oc4ccccc4)c3)ccc3c2CCC3)n1
5000 to 10000 nM

// lookup IC50 for CC1CC(Oc2cc(-c3ccc4c(c3NC(=O)NS(C)(=O)=O)CCC4)ccn2)CCO1 (stereo not drawn)
1000 to 2000 nM
